Assay: in vivo
Parameters: species or system mice
Conditions: male, SCID, mouse, iv, total radioactivity, Biodistribution, Kidneys
Residues, ends and D or L forms follow the SMILES beside them. *: point of attachment. DOTA = O=C(O)CN1CCN(CC(=O)O)CCN(CC(=O)*)CCN(CC(=O)O)CC1; X1 = Cc1ccc(CCCC(=O)NCCOCCOCCOCCOCC(=O)*)cc1; βAla = NCCC(=O)O
RECORDED_METRIC: tissue uptake at 1 h (%ID/g)

1. CC[C@H](C)[C@H](NC(=O)[C@H](Cc1ccc(O)cc1)NC(=O)[C@@H]1CCCN1C(=O)[C@H](CCCNC(=N)N)NC(=O)[C@H](CCCNC(=N)N)NC(=O)[C@H](CCCCNC(=O)COCCOCCOCCOCCNC(=O)CCCc1ccc(C)cc1)NC(=O)CCNC(=O)CCNC(=O)CCNC(=O)CN1CCN(CC(=O)O)CCN(CC(=O)O)CCN(CC(=O)O)CC1)C(=O)N[C@@H](CC(C)C)C(=O)O [[^67Ga]Ga-DT14D, metal not drawn] ({DOTA-βAla-βAla-βAla}-K(X1)RRPYIL-OH) :: 7.1
